assay: Inhibition of SCD in human NCI-H1155 cells non-expressing CYP4F11 assessed as reduction in cell viability incubated for 96 hrs by cell titer Glo reagent based assay
pIC50: −log10 of the molar value.
Reported Property: pIC50

Entry Cc1nnc(-c2ccc(N3CCC(Oc4cc(F)ccc4Cl)CC3)nn2)o1 : reported pIC50 = ?
> 8.00

* * *

Can you tell me log10(IC50) for the items I'm about to list?
assay: Inhibition of SCD in human NCI-H2122 cells expressing CYP4F11 assessed as reduction in cell viability incubated for 96 hrs by cell titer Glo reagent based assay
Hi team, quick reminder: these entries are log10 of IC50 (µM).

Please review the following examples before continuing.
{"columns": ["Item Smiles", "Observed Result"],
 "data": [
  ["COc1ccc2nc(NC(=O)c3cccnc3)sc2c1", 0.04],
  ["O=C(Nc1ncc(-c2ccccc2)s1)c1ccc(C(=O)c2ccccc2)cc1", 0.76],
  ["O=C(Nc1nccs1)c1ccc(C(=O)c2ccccc2)cc1", 1.52],
  ["O=C(Nc1nc(-c2ccccc2)cs1)c1ccc(C(=O)c2ccccc2)cc1", 0.67],
  ["O=C(Nc1nc2ccccc2o1)c1ccc(C(=O)c2ccccc2)cc1", 1.63]
]}

For every listed record, write down its log10(IC50).
1. O=C(Nc1nc2ccccc2s1)c1cccnc1
2. O=C(Nc1nc2ccccc2[nH]1)c1ccc(C(=O)c2ccccc2)cc1

1: -0.59; 2: -1.38

Cited source: BindingDB's records for doi:10.1021/acs.jmedchem.0c00899
